Item-by-item account of half-life at 1 µM
- test protocol: Hamster liver microsomal stability
- protocol conditions: microsomes, pH 7.4
property: half-life at 1 µM

[[record]]
molecule = "COc1cccc2[nH]c(C(=O)N[C@@H](Cc3cccc(F)c3)C(=O)N[C@@H](C[C@@H]3CCNC3=O)C(=O)COc3c(F)c(F)c(C(C)(C)O)c(F)c3F)cc12"
experimental_value = "2.77 min"

[[record]]
molecule = "COc1cccc2[nH]c(C(=O)N[C@@H](Cc3cccc(F)c3)C(=O)N[C@@H](C[C@@H]3CCNC3=O)C(=O)COc3c(F)c(F)c(C(C)O)c(F)c3F)cc12 (some centres unmarked)"
experimental_value = "1.08 min"

[[record]]
molecule = "CC(C)(O)c1c(F)c(F)c(OCC(=O)[C@H](C[C@@H]2CCNC2=O)NC(=O)[C@@H]2[C@@H]3[C@H](CN2C(=O)[C@@H](NC(=O)C(F)(F)F)C(C)(C)C)C3(C)C)c(F)c1F"
experimental_value = "1.73 min"

[[record]]
molecule = "CC(C)(C)[C@H](NC(=O)C(F)(F)F)C(=O)N1C[C@H]2[C@@H]([C@H]1C(=O)N[C@@H](C[C@@H]1CCNC1=O)C(=O)COc1c(F)c(F)c(CO)c(F)c1F)C2(C)C"
experimental_value = "1.73 min"

[[record]]
molecule = "COc1cccc2[nH]c(C(=O)N[C@@H](Cc3cccc(F)c3)C(=O)N[C@@H](C[C@@H]3CCNC3=O)C(=O)COc3c(F)c(F)c(CO)c(F)c3F)cc12"
experimental_value = "0.58 min"


====

- protocol conditions: 3 h, 2 µM
Item-by-item account of mouse plasma protein binding, fraction bound (Fb)
property: mouse plasma protein binding, fraction bound (Fb) (%)

[[record]]
compound = "CCCCCCCC(=O)N[C@@H](Cc1cccc(F)c1)C(=O)N[C@@H](C[C@@H]1CCNC1=O)C(=O)COc1c(F)c(F)c(CO)c(F)c1F"
experimental_value = 99.59

[[record]]
compound = "COc1cccc2[nH]c(C(=O)N[C@@H](Cc3cccc(F)c3)C(=O)N[C@@H](C[C@@H]3CCNC3=O)C(=O)COc3c(F)c(F)c(CO)c(F)c3F)cc12"
experimental_value = 98.06

[[record]]
compound = "COc1cccc2[nH]c(C(=O)N[C@@H](Cc3cccc(F)c3)C(=O)N[C@@H](C[C@@H]3CCNC3=O)C(=O)COc3c(F)c(F)cc(F)c3F)cc12 [compound 15, reference compound]"
experimental_value = 99.57

[[record]]
compound = "CC(C)(C)[C@H](NC(=O)C(F)(F)F)C(=O)N1C[C@H]2[C@@H]([C@H]1C(=O)N[C@@H](C[C@@H]1CCNC1=O)C(=O)COc1c(F)c(F)c(CO)c(F)c1F)C2(C)C"
experimental_value = 96.45


====

- test protocol: in vitro
- protocol conditions: mouse, plasma, mouse plasma protein binding, fraction bound (Fb)
Response field label: string, one of yes (fraction unbound at 3 h, 2 µM strictly below 0.01) or no.

[[record]]
compound = "COc1cccc2[nH]c(C(=O)N[C@@H](Cc3cccc(F)c3)C(=O)N[C@@H](C[C@@H]3CCNC3=O)C(=O)COc3c(F)c(F)cc(F)c3F)cc12 [compound 15, reference compound]"
qualitative_label = "yes"

[[record]]
compound = "CCCCCCCC(=O)N[C@@H](Cc1cccc(F)c1)C(=O)N[C@@H](C[C@@H]1CCNC1=O)C(=O)COc1c(F)c(F)c(CO)c(F)c1F"
qualitative_label = "yes"

[[record]]
compound = "COc1cccc2[nH]c(C(=O)N[C@@H](Cc3cccc(F)c3)C(=O)N[C@@H](C[C@@H]3CCNC3=O)C(=O)COc3c(F)c(F)c(CO)c(F)c3F)cc12"
qualitative_label = "no"

[[record]]
compound = "O=C(N[C@@H](Cc1c[nH]c2ccccc12)C(=O)N[C@@H](C[C@@H]1CCNC1=O)C(=O)COc1c(F)c(F)c(CO)c(F)c1F)c1cc2ccccc2[nH]1"
qualitative_label = "no"

[[record]]
compound = "COc1cccc2[nH]c(C(=O)N[C@@H](Cc3cccc(F)c3)C(=O)N[C@@H](C[C@@H]3CCNC3=O)C(=O)COc3c(F)c(F)c(F)c(F)c3F)cc12 [compound 16, reference compound]"
qualitative_label = "yes"


====

Item-by-item account of IC50
- assayed system: UniProt P0DTD1
- test protocol: biochemical
- Type: biochemical
- protocol conditions: read-out: M^pro biochemical assay pIC50 (converted)
property: IC50 (nM)

[[record]]
molecule = "CCCCCCCC(=O)N[C@@H](Cc1cccc(F)c1)C(=O)N[C@@H](C[C@@H]1CCNC1=O)C(=O)COc1c(F)c(F)c(CO)c(F)c1F [compound 3]"
assayed_system = "UniProt P0DTD1"
property = "IC50"
experimental_value = 11.5

[[record]]
molecule = "COc1cccc2[nH]c(C(=O)N[C@@H](Cc3cccc(F)c3)C(=O)N[C@@H](C[C@@H]3CC(=O)NC3=O)C(=O)COc3c(F)c(F)c(C(C)(C)O)c(F)c3F)cc12 [compound 11]"
assayed_system = "UniProt P0DTD1"
property = "IC50"
experimental_value = 6.76

[[record]]
molecule = "COc1cccc2[nH]c(C(=O)N[C@@H](Cc3cccc(F)c3)C(=O)N[C@@H](C[C@@H]3CCNC3=O)C(=O)COc3c(F)c(F)c(F)c(F)c3F)cc12 [compound 16, reference compound]"
assayed_system = "UniProt P0DTD1"
property = "IC50"
experimental_value = 6.76

[[record]]
molecule = "COc1cccc2[nH]c(C(=O)N[C@@H](Cc3cccc(F)c3)C(=O)N[C@@H](C[C@@H]3CCNC3=O)C(=O)COc3c(F)c(F)c(C(C)O)c(F)c3F)cc12 (some centres unmarked) [compound 8]"
assayed_system = "UniProt P0DTD1"
property = "IC50"
experimental_value = 5.62

[[record]]
molecule = "COc1cccc2[nH]c(C(=O)N[C@@H](Cc3cccc(F)c3)C(=O)N[C@@H](C[C@@H]3CCNC3=O)C(=O)COc3c(F)c(F)c(CO)c(F)c3F)cc12 [compound 1]"
assayed_system = "UniProt P0DTD1"
property = "IC50"
experimental_value = 2.45


====

- assayed system: human cathepsin B (hCTSB) (Homo sapiens, UniProt P07858)
- test protocol: hCTSB biochemical assay
Item-by-item account of hCTSB biochemical assay pIC50
property: hCTSB biochemical assay pIC50

[[record]]
compound = "COc1cccc2[nH]c(C(=O)N[C@@H](Cc3cccc(F)c3)C(=O)N[C@@H](C[C@@H]3CCNC3=O)C(=O)COc3c(F)c(F)c(C(C)(C)O)c(F)c3F)cc12"
property = "hCTSB biochemical assay pIC50"
experimental_value = 5.94

[[record]]
compound = "COc1cccc2[nH]c(C(=O)N[C@H](Cc3cccc(F)c3)C(=O)N[C@@H](C[C@@H]3CCNC3=O)C(=O)COc3c(F)c(F)c(CO)c(F)c3F)cc12"
property = "hCTSB biochemical assay pIC50"
experimental_value = 5.14

[[record]]
compound = "COc1cccc2[nH]c(C(=O)N[C@@H](Cc3cccc(F)c3)C(=O)N[C@@H](C[C@@H]3CCNC3=O)C(=O)COc3c(F)c(F)c(CO)c(F)c3F)cc12"
property = "hCTSB biochemical assay pIC50"
experimental_value = 6.36

[[record]]
compound = "COc1cccc2[nH]c(C(=O)N[C@@H](Cc3cccc(F)c3)C(=O)N[C@@H](CCn3cn[nH]c3=O)C(=O)COc3c(F)c(F)c(C(C)(C)O)c(F)c3F)cc12"
property = "hCTSB biochemical assay pIC50"
experimental_value = 6.68

[[record]]
compound = "COc1cccc2[nH]c(C(=O)N[C@@H](Cc3cccc(F)c3)C(=O)N[C@@H](C[C@@H]3CCNC3=O)C(=O)COc3c(F)c(F)c(C(C)O)c(F)c3F)cc12 (some centres unmarked)"
property = "hCTSB biochemical assay pIC50"
experimental_value = 5.73


====

- test protocol: in vitro
- protocol conditions: hamster, hepatocytes, t1/2 (hamster hepatocytes + ritonavir 4:1)
property: half-life at 2 h, 4 µM (min)

[[record]]
compound = "COc1cccc2[nH]c(C(=O)N[C@@H](Cc3cccc(F)c3)C(=O)N[C@@H](C[C@@H]3CCNC3=O)C(=O)COc3c(F)c(F)c(C(C)(C)O)c(F)c3F)cc12"
experimental_value = 35.7

[[record]]
compound = "COc1cccc2[nH]c(C(=O)N[C@@H](Cc3cccc(F)c3)C(=O)N[C@@H](C[C@@H]3CCNC3=O)C(=O)COc3c(F)c(F)c(CO)c(F)c3F)cc12"
experimental_value = 9

[[record]]
compound = "COc1cccc2[nH]c(C(=O)N[C@@H](Cc3cccc(F)c3)C(=O)N[C@@H](C[C@@H]3CCNC3=O)C(=O)COc3c(F)c(F)c(C(C)O)c(F)c3F)cc12 (stereo partly shown)"
experimental_value = 23.3

[[record]]
compound = "CC(C)(C)[C@H](NC(=O)C(F)(F)F)C(=O)N1C[C@H]2[C@@H]([C@H]1C(=O)N[C@@H](C[C@@H]1CCNC1=O)C(=O)COc1c(F)c(F)c(CO)c(F)c1F)C2(C)C"
experimental_value = 16.6


Hello, the source for this data is paper PMC12169608, in case you need it.
